Each item that follows carries a reported composite z-score.
Tested on: Plasmodium falciparum Sir2 (PF13_0152, Sir2A)
Assay: pfSir2 binders on small-molecule microarrays, primary screen, biochemical, small-molecule microarray, 635 nm fluorescence (AID 1098);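 also: score merges spot fluorescence intensity with its signal-to-noise ratio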
Conditions: small-molecule microarray binding, fluorescence 635 nm; higher = more signal

Compound | Measured Target | composite z-score
C#CCCCON=C1[C@H]2CCn3c(=O)n(C)c(=O)n3[C@H]2[C@H](O)[C@@H]2O[C@H]12 | Plasmodium falciparum Sir2 (PF13_0152, Sir2A) | 0.325
COC(=O)[C@H](C)NC(=O)CCC1CC(OC(=O)NCc2ccc3c(c2)OCO3)CC2(CCCC(COC(=O)NCCc3ccccc3OC)O2)O1 (some centres undefined) | Plasmodium falciparum Sir2 (PF13_0152, Sir2A) | 0.417
CC=CC1=C(CO)C(=O)[C@@H]2O[C@@H]2C1=O | Plasmodium falciparum Sir2 (PF13_0152, Sir2A) | 0.148
C=CC[C@@H]1C=C[C@H](ON=C(C)CCN2CCc3nc(-c4ccccc4)c(-c4ccccc4)cc3C2)[C@@H](CO)O1 | Plasmodium falciparum Sir2 (PF13_0152, Sir2A) | 0.775

Data origin, for the record: PubChem BioAssay
